Experiment: Human HepG2 cell viability assay in 384 well format
Format: toxicity, cell-based
Parameters: dose 125 nL, time 70.5 hour; concentration not given beside the values
Settings: HepG2 cells, read-out: Inhibition
Please go through the items and note down their cytotoxicity at 70.5 h.
Answer in %, number only, no unit symbol.

get_value(item= CN(Cc1ncnn1C)C1CCN(c2sccc2C#N)C1=O (stereo unspecified) , readout=cytotoxicity at 70.5 h) returns -1.7

GET /value?item= CN(Cc1ccc2c(c1)OCO2)C(=O)c1ccc(C2CCCO2)s1 (stereo unspecified) &field=cytotoxicity at 70.5 h returns -6.85

# cytotoxicity at 70.5 h of CC(C)(C)OC(=O)N1CCC(NC2CCS(=O)(=O)C2)CC1 (stereo unspecified) = -8.07

The measured cytotoxicity at 70.5 h associated with O=C(NCc1ccc(Cl)cc1)N1CCN(CC(O)C2CC2)CC1 (stereo unspecified) reads -8.1

Looking up COCC(=O)N1CCC(c2cc(-c3ccc(OC)cc3)n[nH]2)C1 (stereo unspecified) , I found its cytotoxicity at 70.5 h recorded as 10.4

Lab book: cytotoxicity at 70.5 h of NC(=O)C1CCN(C(=O)CCn2c(C(F)(F)F)cc3cccnc32)CC1 noted as 3.01
